biological target: Proteinase-activated receptor 2 (Homo sapiens, UniProt P55085); experiment: Antagonist activity at PAR2 in human HT-29 cells assessed as inhibition of agonist-induced calcium mobilization; type: functional, cell-based
Sequence (P55085 whole entry): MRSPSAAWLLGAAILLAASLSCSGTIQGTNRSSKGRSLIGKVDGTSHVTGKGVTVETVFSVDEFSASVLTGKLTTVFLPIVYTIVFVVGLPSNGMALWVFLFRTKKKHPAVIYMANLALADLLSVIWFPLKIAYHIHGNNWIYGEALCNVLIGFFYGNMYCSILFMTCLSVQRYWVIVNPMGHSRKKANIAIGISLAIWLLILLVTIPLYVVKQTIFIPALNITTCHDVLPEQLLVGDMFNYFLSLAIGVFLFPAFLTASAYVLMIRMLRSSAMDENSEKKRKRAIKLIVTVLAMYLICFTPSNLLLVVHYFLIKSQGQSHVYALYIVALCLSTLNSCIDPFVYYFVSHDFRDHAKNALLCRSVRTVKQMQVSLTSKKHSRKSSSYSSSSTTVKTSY
List of IC50 values.
Measured Endpoint: IC50

{"columns": ["Molecule", "Measured Endpoint", "Val"],
 "data": [
  ["CC[C@H](C)[C@H](NC(=O)[C@H](CC1CCCCC1)NC(=O)c1ccno1)C(=O)N1CCC2(CCc3ccccc32)CC1", "IC50", "2000 nM"],
  ["CC[C@H](C)[C@H](NC(=O)[C@H](CC1CCCCC1)NC(=O)c1ccno1)C(=O)N1CCC2(C=Cc3ccccc32)CC1", "IC50", "1000 nM"]
]}
